Test: qHTS of pediatric cancer cell lines to identify multiple opportunities for drug repurposing: Primary screen for NB1643 cells (AID 1347099); also: nearly all actives have a fitted effect of over 50% in size; also: potency is read from the fitted curve at half-maximal effect
Conditions: NB1643 neuroblastoma viability, CellTiter-Glo luminescence, 48 h; series mostly up to 46 µM
Records with an inconclusive call do not appear. Active and inactive are the calls of the source. Calls follow the shape of the dose curve; as a rule, active = well fitted cell-killing curve with a large enough effect; inconclusive = small, poorly fitted or top-dose-only effect; inactive = no such curve, though single readings can be large or run the other way.
resultType: Potency

NC(=NCCCCCCN=C(N)N=C(N)Nc1ccc(Cl)cc1)N=C(N)Nc1ccc(Cl)cc1; 5.26 µM (active)
COc1cc(C(=O)NC2CCN(C)CC2)ccc1Nc1ncc2c(n1)N(C1CCCC1)CCC(=O)N2C(C)C; 3.72 µM (active)
CN(N=O)C(=O)N[C@H]1C(O)OC(CO)[C@@H](O)[C@H]1O (stereo partly drawn); inactive
C[C@@H](Cc1cc2c(c(C(N)=O)c1)N(CCCO)CC2)NCCOc1ccccc1OCC(F)(F)F; inactive
C[C@@H](NCc1cc2ccccc2[nH]1)c1cccc2ccccc12; inactive
CNC(=O)Nc1ccc(-c2nc(N3CC4CCC(C3)O4)c3cnn(C4CCC5(CC4)OCCO5)c3n2)cc1; inactive
O=S(=O)(O)CCSSCCS(=O)(=O)O; 23.5 µM (active)
CO[C@@H]1[C@@H](O)[C@H](O)[C@@H](n2c3c(Cl)cccc3c3c4c(c5c6cccc(Cl)c6[nH]c5c32)C(=O)NC4=O)O[C@@H]1CO; 0.418 µM (active)

Problem: Consider the compound O=C1NC(=O)C(=Cc2ccc3nccc(-c4ccncc4)c3c2)S1 . State its measured Potency.
Solution: 1.32 µM (active)

Problem: Assign Potency to the following record: COc1cc2c(Nc3ccc(Cl)c(Cl)c3F)ncnc2cc1OCC1C[C@@H]2CN(C)C[C@H]2C1
Solution: 14.8 µM (active)

Problem: Provide measured Potency value, entry: CCOC(=O)N1CCN([N+]([O-])=NOc2ccc([N+](=O)[O-])cc2C#N)CC1
Solution: 3.72 µM (active)

Problem: Note Potency for the compound shown: CC(=O)ON=C1C(c2c(O)[nH]c3cc(Br)ccc23)=Nc2ccccc21
Solution: 16.6 µM (active)

Problem: Indicate the recorded Potency value for this compound: Cc1cc(O)c2c(c1)C(=O)c1cccc(O)c1C2=O
Solution: inactive

Problem: Determine its reported Potency: CCc1nc(-c2cccc(C)c2)c(-c2ccnc(NC(=O)c3ccccc3)c2)s1
Solution: 18.7 µM (active)

Problem: Name the recorded Potency of the compound listed here: COc1ccc2cc([S+]([O-])Cc3ncc(C)c(OC)c3C)nc2c1
Solution: inactive

Problem: Find the measured Potency of CCOc1cc2ncc(C#N)c(Nc3ccc(OCc4ccccn4)c(Cl)c3)c2cc1NC(=O)C=CCN(C)C and report it.
Solution: 0.59 µM (active)

Problem: Dear colleague, please send me the reported Potency for O=C(c1ccc(F)cc1)N1CCC[C@H](c2nc(-c3ccc(F)cc3)no2)C1 when you can.
Solution: inactive

Problem: Determine from records and report Potency for CS[C@H]1SC[C@@H]2C(=O)N(C)[C@H](C(C)C)C(=O)OC[C@H](NC(=O)c3cnc4ccccc4n3)C(=O)N[C@H](C)C(=O)N(C)[C@@H]1C(=O)N(C)[C@H](C(C)C)C(=O)OC[C@H](NC(=O)c1cnc3ccccc3n1)C(=O)N[C@H](C)C(=O)N2C
Solution: inactive

----------
Tested on: HACAT
Assay: qHTS assay to identify novel small-molecules to repurpose for Merkel cell carcinoma treatment (AID 1296009); also: nearly all actives have a fitted effect of over 60% in size
Details: MCC and control cell lines, CellTiter-Glo viability, 72 h; at 44.8 µM (top of the series) unless noted
Inconclusive results are not listed. Activity calls are given as the source filed them. Calls follow the shape of the dose curve; as a rule, active = well fitted inhibition curve with a large enough effect; inconclusive = small, poorly fitted or top-dose-only effect; inactive = flat fitted curve, though single readings scatter.
resultType: outcome

CC1(C)[C@H](O[C@H]2O[C@H](C(=O)O)[C@@H](O)[C@H](O)[C@H]2O[C@@H]2O[C@H](C(=O)O)[C@@H](O)[C@H](O)[C@H]2O)CC[C@@]2(C)[C@H]1CC[C@]1(C)[C@H]2C(=O)C=C2[C@H]3C[C@@](C)(C(=O)O)CC[C@]3(C)CC[C@]21C; inactive
C[C@@H]1C(=O)O[C@H]2CC34[C@H]5C[C@@H](C(C)(C)C)C36[C@H](OC(=O)[C@@H]6O)O[C@@]4(C(=O)O5)[C@]21O (stereo partly drawn); inactive
CC1(C)O[C@@H]2C[C@H]3[C@@H]4CCC5=CC(=O)C=C[C@]5(C)[C@@H]4[C@@H](O)C[C@]3(C)[C@]2(C(=O)CO)O1; inactive

----------
Experiment: HepG2 cells viability qHTS for Zika virus inhibitors (AID 1347168); also: potency is read from the fitted curve at half-maximal effect
Details: Zika counter-screen; series mostly up to 45.9 µM
Records with an inconclusive call do not appear. Calls of active or inactive are those of the source. Calls follow the shape of the dose curve; as a rule, active = well fitted cell-killing curve with a large enough effect; inconclusive = small, poorly fitted or top-dose-only effect; inactive = flat fitted curve, though single readings scatter.
resultType: Potency

c1cc(N[C@@H]2CCNC2)nc(-c2cnc3ccc(-c4cn[nH]c4)cn23)c1; inactive
Cc1ccc(-n2[nH]c(C)c(N=Nc3cccc(-c4cccc(C(=O)O)c4)c3O)c2=O)cc1C; inactive
CNC(=O)c1cccc(-c2ccc3c(N4CCOC[C@H]4C)nc(N4CCOC[C@H]4C)nc3n2)c1; inactive
CCCCCCCCc1ccc(CCC(N)(CO)CO)cc1; 26.2 µM (active)

----------
Assay: High-throughput drug toxicity screening in the BPDCN cell line Cal-1 (AID 1224825);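 also: cells exposed to compounds for 48 h; 100% = DMSO and 0% = bortezomib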
Settings: Cal-1 BPDCN cell viability, qHTS; at 45.8 µM (top of the series) unless noted
Excerpt: Blastic plasmacytoid dendritic cell neoplasm (BPDCN) is a rare, aggressive and largely incurable hematologic malignancy originating from plasmacytoid dendritic cells (pDCs). Although an initial response to chemotherapy is common, BPDCN prognosis is extremely poor and most patients relapse with drug-resistant disease leading to a median overall survival of ~1 year after diagnosis. […]
resultType: viability (% of control) (%)
Just the number in %, nothing appended.

Use the examples below as a reference point.
Nc1cccc2c1C(=O)N(C1CCC(=O)NC1=O)C2=O (configuration not stated); 88.7
C[C@@H]1CC[C@@]2(OC1)OC1CC3C4CC=C5CC(O)CCC5(C)C4CCC3(C)C1[C@@H]2C (some centres not stated); 115
CC(=O)O[C@H]1C[C@@H]2CC[C@H]3[C@H]4C[C@H]([N+]5(C)CCCCC5)[C@@H](OC(C)=O)[C@@]4(C)CC[C@@H]3[C@@]2(C)C[C@H]1N1CCCCC1; 123
CC(C)OC(=O)[C@H](C)N[P@](=O)(OC[C@H]1O[C@@H](n2ccc(=O)[nH]c2=O)[C@](C)(F)[C@H]1O)Oc1ccccc1; 88.9
C=CC1=C(C(=O)O)N2C(=O)[C@@H](NC(=O)C(=NO)c3csc(N)n3)[C@H]2SC1; 105

Problem: Please indicate viability (% of control) recorded for N=c1ccn2c(n1)O[C@H]1[C@@H](O)[C@@H](CO)O[C@H]12
Solution: 11.2

Problem: Output viability (% of control) of CCOc1cc2c(c(F)c1OCC)C(=N)N(CC(=O)c1cc(N3CCOCC3)c(OC)c(C(C)(C)C)c1)C2
Solution: 2.82

Problem: Identify measured viability (% of control) associated with CCNC(=O)Nc1ccc(-c2nc3c(c(N4CCOC[C@H]4C)n2)CCN(C2COC2)C3)cc1
Solution: 19.9

Problem: Answer with the recorded viability (% of control) of C[C@H](NCc1ccc2c(c1)nc(NC(=O)c1ccc(-c3cn[nH]c3)s1)n2CCc1ccccc1)C(C)(C)C only.
Solution: 2.31

Problem: Item c1ccc(CNc2nc(NCc3ccccc3)c3ccccc3n2)cc1 : provide viability (% of control)
Solution: 2.67

Problem: Input N#Cc1cc(NC(=O)Nc2nnc(-c3ccncc3)s2)ccc1-c1cn[nH]c1 , output reported viability (% of control).
Solution: 111

Problem: Given the compound CCOc1cc2ncc(C#N)c(Nc3ccc(OCc4ccccn4)c(Cl)c3)c2cc1NC(=O)C=CCN(C)C , write its reported viability (% of control).
Solution: 13.3

Problem: State its viability (% of control) for this compound: CC(C=CC(=O)NO)=C[C@@H](C)C(=O)c1ccc(N(C)C)cc1
Solution: 2.32

Problem: Please list viability (% of control) recorded for the compound COc1cc(OC)c(C=CS(=O)(=O)Cc2ccc(OC)c(NCC(=O)O)c2)c(OC)c1
Solution: 8.09

Problem: For the compound CC(=O)N[C@H]1[C@@H]([C@H](O)[C@H](O)CO)OC(C(=O)O)=C[C@@H]1N=C(N)N , report viability (% of control).
Solution: 124

Problem: Tell me viability (% of control) reported for COc1cccc2c1C(=O)c1c(O)c3c(c(O)c1C2=O)C[C@@](O)(C(C)=O)C[C@H]3O[C@H]1C[C@H](N)[C@H](O)[C@H](C)O1
Solution: 3.72

----------
Test system: AA1029
Assay: qHTS profiling for inhibitors of Plasmodium falciparum proliferation (AID 504749); also: nearly all actives have a fitted effect of over 60% in size
Conditions: P. falciparum in erythrocytes, SYBR Green DNA, 72 h; series mostly up to 28.7 µM
Results filed as inconclusive are left out. Calls of active or inactive are those of the source. The call rests on the fitted dose curve; in most records, active means well fitted inhibition curve with a large enough effect; inconclusive means small, poorly fitted or top-dose-only effect; inactive means flat fitted curve, though single readings scatter.
The reply should be one of these categories: active, inactive

COc1ccc2c(c1OC)C(=O)OC2[C@H]1c2c(cc3c(c2OC)OCO3)CCN1C (some centres undefined); inactive

Problem: # lookup: test call for CCC(C(=O)O)C1CCC(C)C(C(C)C(O)C(C)C(=O)C(CC)C2OC3(C=CC(O)[C@@]4(CC[C@](C)(C5CC[C@@](O)(CC)C(C)O5)O4)O3)C(C)CC2C)O1 (some centres undefined)
Solution: active

Problem: Hello, I am checking results. What call was entered for CCCCCCCCCCCC(CC1OC(=O)C1CCCCCC)OC(=O)C(CC(C)C)NC=O (centres undefined) ?
Solution: active

Problem: In this assay, the call recorded for Nc1nc2c(c(=O)[nH]1)N(C=O)[C@H](CNc1ccc(C(=O)N[C@@H](CCC(=O)O)C(=O)O)cc1)CN2 was what?
Solution: inactive
